Target: T1, human serum albumin (human, UniProt P02768 25-609)
T1 construct: also called HSA
Assay: SPR, single cycle kinetics, pH 7.4
pKd: −log10 of the molar value.
Cut-off 7 on pKd, inclusive. At or above means met; below means not met.

Assess whether reported pKd for M75 sdAb (VHH, also called M75 VHH) VHH: QVQLVESGGGFVQAGGSLRLSCAASGRTFDNYVMAWFRQAPGKEREFVASISGSGSITNYANSVKDRFTISRDSAKNAIYLQMNSLKPEDTALYYCAAGSRRTYYREPKFYPSWGQGTQVTVSS sits at 7 or higher.
met

Assess whether reported pKd for H18-H3 (VHH) VHH: QVQLVESGGGLVQPGGSLRLSCAASGSIESINRMAWYRQAPGKQREFVARISKGGSTNYPDSVKGRFTISRDNSKNTLYLQMNSLRAEDTAVYYCAAGPVWEQFWGQGTLVTVSS sits at 7 or higher.
met

Assess whether reported pKd for Rh34-H5 (VHH) VHH: QVQLVESGGGLVQPGGSLRLSCAASGRTISLYAVGWFRRAPGKEREFVAAISWTDSSTYYADSVKGRFTISRDNAKNTVYLQMNSLRAEDTAVYYCAADVSIRGLQKYEYDYWGQGTLVTVS sits at 7 or higher.
not met

Assess whether reported pKd for Rh46-H4 (VHH) VHH: QVQLVESGGGLVQPGGSLRLSCAASTRTFSSYIMGWFRQAPGKERELVAAISWSGRMTHYADSVKGRFTISRDNSKNTLYLQMNSLRAEDTAIYSCAADRTTAWGAPRSQYDSWGQGTLVTVSS sits at 7 or higher.
not met

Assess whether reported pKd for H18-H4 (VHH) VHH: QVQLVESGGGLVQPGGSLRLSCAASGSIESINRMAWYRQAPGQQREFVARISKGGSTNYPDSVKGRFTISRDNSKNTLYLQMNSLRAEDTAVYYCAAGPVWEQFWGQGTLVTVSS sits at 7 or higher.
met

Assess whether reported pKd for M75-H3 (VHH) VHH: QVQLVESGGGLVQPGGSLRLSCAASGRTFDNYVMAWFRQAPGKEREFVASISGSGSITNYANSVKDRFTISRDNSKNTLYLQMNSLRAEDTAVYYCAAGSRRTYYREPKFYPSWGQGTLVTVSS sits at 7 or higher.
met

Data origin, for the record: patent US20210253679A1
